Target: xanthine oxidase (Bos taurus)
Sequence (P80457 whole entry): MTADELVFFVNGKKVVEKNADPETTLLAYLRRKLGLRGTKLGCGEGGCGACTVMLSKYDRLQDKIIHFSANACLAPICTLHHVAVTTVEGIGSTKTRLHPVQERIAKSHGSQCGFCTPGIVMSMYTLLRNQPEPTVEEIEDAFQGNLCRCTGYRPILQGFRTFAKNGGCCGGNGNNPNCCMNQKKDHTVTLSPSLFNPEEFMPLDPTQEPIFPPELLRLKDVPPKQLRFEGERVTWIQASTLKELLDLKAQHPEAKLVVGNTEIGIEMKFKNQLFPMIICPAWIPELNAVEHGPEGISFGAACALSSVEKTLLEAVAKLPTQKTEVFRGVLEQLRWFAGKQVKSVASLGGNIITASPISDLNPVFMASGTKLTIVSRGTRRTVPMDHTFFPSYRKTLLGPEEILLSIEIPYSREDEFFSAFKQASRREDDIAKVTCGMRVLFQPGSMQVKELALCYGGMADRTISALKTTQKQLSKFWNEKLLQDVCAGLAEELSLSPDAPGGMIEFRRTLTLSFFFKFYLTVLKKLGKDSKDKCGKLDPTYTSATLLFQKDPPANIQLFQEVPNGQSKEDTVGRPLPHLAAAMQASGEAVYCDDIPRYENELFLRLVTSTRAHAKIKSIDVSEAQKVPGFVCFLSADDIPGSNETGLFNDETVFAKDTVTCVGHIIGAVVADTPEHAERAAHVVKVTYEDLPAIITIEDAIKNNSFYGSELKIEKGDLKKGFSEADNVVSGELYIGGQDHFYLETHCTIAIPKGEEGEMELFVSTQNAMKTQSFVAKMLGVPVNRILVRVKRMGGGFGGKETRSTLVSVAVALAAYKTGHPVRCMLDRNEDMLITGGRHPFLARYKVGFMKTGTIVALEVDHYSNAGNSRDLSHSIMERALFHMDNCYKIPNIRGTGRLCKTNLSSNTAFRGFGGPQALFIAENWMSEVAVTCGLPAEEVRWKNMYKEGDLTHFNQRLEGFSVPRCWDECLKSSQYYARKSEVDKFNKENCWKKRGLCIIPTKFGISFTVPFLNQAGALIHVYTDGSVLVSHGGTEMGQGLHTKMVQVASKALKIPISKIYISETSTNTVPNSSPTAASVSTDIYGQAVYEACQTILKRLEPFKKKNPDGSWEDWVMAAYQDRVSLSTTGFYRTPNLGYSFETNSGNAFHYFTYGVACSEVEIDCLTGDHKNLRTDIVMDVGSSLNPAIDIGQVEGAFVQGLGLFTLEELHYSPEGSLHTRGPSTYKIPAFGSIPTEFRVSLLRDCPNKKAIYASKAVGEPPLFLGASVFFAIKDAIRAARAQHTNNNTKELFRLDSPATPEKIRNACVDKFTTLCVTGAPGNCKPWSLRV
pIC50: −log10 of the molar value.
PROPERTY MEASURED: pIC50

COMPOUND: O=C(/C=C/c1ccc(O)c(O)c1)O[C@H](Cc1ccc(O)c(O)c1)C(=O)O [Rosmarinic acid, rosmarinic acid]
SUBJECT OF TEST: xanthine oxidase (Bos taurus)
ASSAY VALUE: 6.01
//
COMPOUND: COc1cc(O)c2c(=O)cc(-c3ccccc3)oc2c1 [Techtochrysin, techtochrysin]
SUBJECT OF TEST: xanthine oxidase (Bos taurus)
ASSAY VALUE: 7.08
//
COMPOUND: O=c1cc(-c2ccc(O)c(O)c2)oc2cc(O)cc(O)c12 [Luteolin, luteolin]
SUBJECT OF TEST: xanthine oxidase (Bos taurus)
ASSAY VALUE: 5.77

---

Biological target: xanthine oxidase (Bos taurus)
Assay: Fixed-ratio combination analysis on XO
Settings: read-out: EC90 dose

COMPOUND: Cc1nc(-c2ccc(OCC(C)C)c(C#N)c2)sc1C(=O)O [Febuxostat, febuxostat, reference compound]
EC90 [µM]: 0.12
--
COMPOUND: Oc1ncnc2[nH]ncc12 [Allopurinol, allopurinol, reference compound]
EC90 [µM]: 4.05
--
COMPOUND: O=C(/C=C/c1ccc(O)c(O)c1)O[C@H](Cc1ccc(O)c(O)c1)C(=O)O
EC90 [µM]: 5.22
--
COMPOUND: COc1cc(O)c2c(=O)cc(-c3ccccc3)oc2c1
EC90 [µM]: 0.88

---

Biological target: xanthine oxidase (Bos taurus)
Experiment: Fixed-ratio combination analysis on XO
Conditions: Dm (median-effect dose), antilog of x-intercept of median-effect plot, CompuSyn
We begin with a simple list: items and their reported EC50.

COMPOUND: O=C(/C=C/c1ccc(O)c(O)c1)O[C@H](Cc1ccc(O)c(O)c1)C(=O)O [Rosmarinic acid, rosmarinic acid]
EC50 / nM: 1040
//
COMPOUND: COc1cc(O)c2c(=O)cc(-c3ccccc3)oc2c1 [Techtochrysin, techtochrysin]
EC50 / nM: 81

---

Target: xanthine oxidase (Bos taurus)
Assay: Fixed-ratio combination analysis on XO
Settings: EC50 dose, single agent, dose for 50% inhibition of XO activity
pEC50: −log10 of the molar value.
compounds and their reported pEC50
PROPERTY MEASURED: pEC50

CHEM SMILES: COc1cc(O)c2c(=O)cc(-c3ccccc3)oc2c1
ASSAY VALUE: 7.08

CHEM SMILES: O=C(/C=C/c1ccc(O)c(O)c1)O[C@H](Cc1ccc(O)c(O)c1)C(=O)O
ASSAY VALUE: 6.01
